run-conditions: in ethanol, 313.15 K
outcome-measure: solubility (mole fraction)
Keep it simple and answer with nothing but the number.

GET /value?item= CC(C)(O)P1(=O)OCC2(CO1)COP(=O)(C(C)(C)O)OC2 (stereo unspecified) &field=solubility (mole fraction) returns 0.00346

* * *

run-conditions: in acetic acid, 323.15 K
outcome-measure: solubility (mole fraction)
Keep it simple and answer with nothing but the number.

GET /value?item= CC(C)(O)P1(=O)OCC2(CO1)COP(=O)(C(C)(C)O)OC2 (stereo unspecified) &field=solubility (mole fraction) returns 0.015

* * *

run-conditions: in acetone, 318.4 K
outcome-measure: solubility (mole fraction)
Keep it simple and answer with nothing but the number.

GET /value?item= CC(C)(O)P1(=O)OCC2(CO1)COP(=O)(C(C)(C)O)OC2 (stereo unspecified) &field=solubility (mole fraction) returns 0.00194

* * *

run-conditions: in acetone, 298.44 K
outcome-measure: solubility (mole fraction)

GET /value?item= CC(C)(O)P1(=O)OCC2(CO1)COP(=O)(C(C)(C)O)OC2 (stereo unspecified) &field=solubility (mole fraction) returns 0.000762

* * *

run-conditions: in acetone, 308.29 K
outcome-measure: solubility (mole fraction)
Keep it simple and answer with nothing but the number.

GET /value?item= CC(C)(O)P1(=O)OCC2(CO1)COP(=O)(C(C)(C)O)OC2 (stereo unspecified) &field=solubility (mole fraction) returns 0.00124

* * *

run-conditions: in acetone, 313.27 K
outcome-measure: solubility (mole fraction)
Keep it simple and answer with nothing but the number.

GET /value?item= CC(C)(O)P1(=O)OCC2(CO1)COP(=O)(C(C)(C)O)OC2 (stereo unspecified) &field=solubility (mole fraction) returns 0.00159

* * *

run-conditions: in methanol, 302.94 K
outcome-measure: solubility (mole fraction)
Keep it simple and answer with nothing but the number.

GET /value?item= CC(C)(O)P1(=O)OCC2(CO1)COP(=O)(C(C)(C)O)OC2 (stereo unspecified) &field=solubility (mole fraction) returns 0.00751

* * *

run-conditions: in acetic acid, 303.14 K
outcome-measure: solubility (mole fraction)
Keep it simple and answer with nothing but the number.

GET /value?item= CC(C)(O)P1(=O)OCC2(CO1)COP(=O)(C(C)(C)O)OC2 (stereo unspecified) &field=solubility (mole fraction) returns 0.00907

* * *

run-conditions: in water, 303.15 K
outcome-measure: solubility (mole fraction)
Keep it simple and answer with nothing but the number.

GET /value?item= CC(C)(O)P1(=O)OCC2(CO1)COP(=O)(C(C)(C)O)OC2 (stereo unspecified) &field=solubility (mole fraction) returns 0.00607

* * *

run-conditions: in water, 342.86 K
outcome-measure: solubility (mole fraction)
Keep it simple and answer with nothing but the number.

GET /value?item= CC(C)(O)P1(=O)OCC2(CO1)COP(=O)(C(C)(C)O)OC2 (stereo unspecified) &field=solubility (mole fraction) returns 0.00867

* * *

run-conditions: in water, 323.05 K
outcome-measure: solubility (mole fraction)

GET /value?item= CC(C)(O)P1(=O)OCC2(CO1)COP(=O)(C(C)(C)O)OC2 (stereo unspecified) &field=solubility (mole fraction) returns 0.00723

* * *

run-conditions: in ethanol, 332.93 K
outcome-measure: solubility (mole fraction)
Keep it simple and answer with nothing but the number.

GET /value?item= CC(C)(O)P1(=O)OCC2(CO1)COP(=O)(C(C)(C)O)OC2 (stereo unspecified) &field=solubility (mole fraction) returns 0.00666
